Assay: Tolerability in Sprague-Dawley rats, plasma chemistry markers (Example 20)
Format: in vivo
Details: male Sprague-Dawley rats, 50 mg/kg s.c. weekly for 6 weeks (7 doses), 48 hours after last dose
Experimental: Sprague-Dawley rats are a multipurpose model used for safety and efficacy evaluations. The rats were treated with Ionis modified oligonucleotides from the studies described in the Examples above and evaluated for changes in the levels of various plasma chemistry markers.
Strand notation (5' to 3'): a small letter for the sugar, then the base; units joined by * are phosphorothioate-linked, units joined directly phosphodiester-linked; [ ] holds rarer units or linkages, { } end groups; capitals alone tell only the bases. k = constrained ethyl (cEt); [5mC] = 5-methylcytosine; d = 2'-deoxy (DNA)
So I've got a bunch of substances here, and I need their TBIL values.
# value in mg/dL; strip the unit string

Prompt: Specify reported TBIL for the substance shown: 1076481 (k[5mC]*kT*kA*dA*dG*dT*dA*dA*dG*dG*dT*dT*dT*k[5mC]*k[5mC]*k[5mC]) [compound 1076481]
Completion: 0.13

Prompt: Specify reported TBIL for the substance shown: 1074755 (k[5mC]*kA*k[5mC]*dT*dT*dT*dT*dA*d[5mC]*dA*dT*dT*dA*kG*kG*kA; antisense) [compound 1074755]
Completion: 0.12

Prompt: Specify reported TBIL for the substance shown: 1076187 (kG*kA*kT*dT*dT*dA*dG*dG*dA*dT*dG*d[5mC]*dA*kT*kG*kG; antisense) [compound 1076187]
Completion: 0.10

###

So I've got a bunch of substances here, and I need their Liver with gallbladder weight values.
Experiment: Cynomolgus monkey tolerability, body and organ weight measurements (Example 34)
Assay type: in vivo
Settings: cynomolgus monkeys, 35 mg/kg subcutaneously, necropsy
# value in g; strip the unit string

Prompt: Specify reported Liver with gallbladder weight for the substance shown: 1198623 (CTAAGTAAGGTTTCCC; modified gapmer, further chemistry not given here) [compound 1198623]
Completion: 62

Prompt: Specify reported Liver with gallbladder weight for the substance shown: 1198728 (TATTAGAGTATGTGGC; modified gapmer, further chemistry not given here) [compound 1198728]
Completion: 65

Prompt: Specify reported Liver with gallbladder weight for the substance shown: 1197270 (TTAAAGTGTATGTCAG; cEt gapmer with 2'-OMe nucleoside, phosphorothioate, further chemistry not given here) [compound 1197270]
Completion: 73

Prompt: Specify reported Liver with gallbladder weight for the substance shown: 1198440 (AAGTGTATGTCAGAAG; cEt, 2'-MOE, 5-methylcytosine, phosphorothioate modifications, further chemistry not given here) [compound 1198440]
Completion: 65

Prompt: Specify reported Liver with gallbladder weight for the substance shown: 1198439 (AGTGTATGTCAGAAGA; sugar, 5-methylcytosine, phosphorothioate modifications, further chemistry not given here) [compound 1198439]
Completion: 67

Prompt: Specify reported Liver with gallbladder weight for the substance shown: 1198872 (TGTATGTCAGAAGAGT; chemically modified gapmer, further chemistry not given here) [compound 1198872]
Completion: 63

Prompt: Specify reported Liver with gallbladder weight for the substance shown: 958499 (ATTAGAGTATGTGGCA; 3-10-3 cEt gapmer, further chemistry not given here) [compound 958499]
Completion: 68

Prompt: Specify reported Liver with gallbladder weight for the substance shown: 1198831 (CACTTTTACATTAGGA; chemically modified gapmer, further chemistry not given here) [compound 1198831]
Completion: 65

Prompt: Specify reported Liver with gallbladder weight for the substance shown: 1076453 (GTAATATTGCAATCTG; 3-10-3 cEt gapmer, further chemistry not given here) [compound 1076453]
Completion: 72

Prompt: Specify reported Liver with gallbladder weight for the substance shown: 1198605 (GTAATATTGCAATCTG; modified gapmer, further chemistry not given here) [compound 1198605]
Completion: 67
